Tested on: MRC-5 normal human lung fibroblasts
Assay summary: cells
Setup conditions: MRC5, 72 h, read-out: IC50 ± SEM, MRC-5
Endpoint label: pIC50
Value format note: pIC50 is -log10 of concentration (mol/L); just state the number.

Example cases with answers are listed next.
{"columns": ["Compound", "pIC50"],
 "data": [
  ["COc1cc([C@@H]2c3cc4c(cc3[C@@H](O[C@@H]3O[C@@H]5CO[C@@H](C)O[C@H]5[C@H](O)[C@H]3O)[C@H]3COC(=O)[C@H]23)OCO4)cc(OC)c1O [Ref., etoposide, reference compound]", 5.66],
  ["COC(=O)/C(C1=C(C(=O)c2ccccc2)C(=O)c2ccccc2C1=O)=C(/C)N[C@@H](CC(C)C)C(=O)OC", 4.58],
  ["COC(=O)/C(C1=C(C(=O)c2ccccc2)C(=O)c2ccccc2C1=O)=C(/C)N[C@H](C)C(=O)OC", 4.76]
]}

# pIC50 of CCCCCC(=O)C1=C(/C(C(=O)OC)=C(\C)N[C@@H](CC(C)C)C(=O)OC)C(=O)c2ccccc2C1=O = 4.60

# pIC50 of COC(=O)/C(C1=C(C(=O)c2ccccc2)C(=O)c2ccccc2C1=O)=C(/C)N[C@@H](C)C(=O)OC = 4.24

----------
Endpoint label: melting point

{"columns": ["Compound", "melting point"],
 "data": [
  ["COC(=O)/C(C1=C(C(=O)c2ccccc2)C(=O)c2ccccc2C1=O)=C(/C)N[C@@H](C)C(=O)OC", "217 to 218 °C"],
  ["COC(=O)/C(C1=C(C(=O)c2ccccc2)C(=O)c2ccccc2C1=O)=C(/C)N[C@@H](CC(C)C)C(=O)OC", "222.5 to 224.5 °C"],
  ["COC(=O)C1=C(C)N(CCO)C(O)(c2ccccc2)C2=C1C(=O)c1ccccc1C2=O (stereo not shown)", "236.5 to 238.5 °C"]
]}

Turning now to a further compound:
# melting point of COC(=O)C1=C(C)N(CCO)C(C)(O)C2=C1C(=O)c1ccccc1C2=O (stereo not shown) = 215 to 217 °C

----------
System: J82 human bladder carcinoma cells
Assay summary: MTT reduction cytotoxicity assay, 72 h drug exposure, J82
Format: cell-based
Setup conditions: human bladder carcinoma cell line, 72 h exposure, average of six determinations, read-out: IC50 ± SEM, J82
Endpoint label: pIC50
Value format note: pIC50 is -log10 of concentration (mol/L); just state the number.

{"columns": ["Molecule", "Observed"],
 "data": [
  ["CCCCCC(=O)C1=C(/C(C(=O)OC)=C(\\C)N[C@@H](CC(C)C)C(=O)OC)C(=O)c2ccccc2C1=O", 4.63],
  ["COc1cc([C@@H]2c3cc4c(cc3[C@@H](O[C@@H]3O[C@@H]5CO[C@@H](C)O[C@H]5[C@H](O)[C@H]3O)[C@H]3COC(=O)[C@H]23)OCO4)cc(OC)c1O [Ref., etoposide, reference compound]", 5.48],
  ["COC(=O)/C(C1=C(C(=O)c2ccccc2)C(=O)c2ccccc2C1=O)=C(/C)N[C@H](C)C(=O)OC", 4.45]
]}

# pIC50 of COC(=O)/C(C1=C(C(=O)c2ccccc2)C(=O)c2ccccc2C1=O)=C(/C)N[C@@H](CC(C)C)C(=O)OC = 4.89

# pIC50 of COC(=O)/C(C1=C(C(=O)c2ccccc2)C(=O)c2ccccc2C1=O)=C(/C)N[C@@H](C)C(=O)OC = 4.43

Reference for the values: paper PMC6149812
